Target: TRAILR2 receptor on the surface of human tumor cells (human, UniProt O14763 56-440)
Test: cell-based or functional assay
Property label: IC50, cytotoxic effect on NCI-H1975 cells (CellTiter-Glo, 72 h) (µg/mL)
Numeric only. Scale: µg/mL

binder="Zapadcine-1b (antibody, V domains shown, MMAD coupled through linker Mc-Vc-PAB by thiol conventional coupling, cleavable; positions not given) VH: QVQLVQSGSELKKPGASVKVSCKASGYTFTDFSMNWVRQAPGQGLEWMGWINTETGEPTYADDFKGRFVFSLDTSVSTAYLQISSLKAEDTAVYYCARIDYWGQGTTVTVSS VL: DIVMTQSPLSLPVTPGEPASISCRSSQSLVHSNGNTYLHWYLQKPGQSPQLLIYKVSNRFSGVPDRFSGSGSGTDFTLKISRVEAEDVGVYYCFQSTHVPHTFGQGTKLEIKR" reported_measurement=0.411
binder="Zapadcine-1d (antibody, V domains shown, MMAF coupled through linker Mc-Vc-PAB by thiol conventional coupling, cleavable; positions not given) VH: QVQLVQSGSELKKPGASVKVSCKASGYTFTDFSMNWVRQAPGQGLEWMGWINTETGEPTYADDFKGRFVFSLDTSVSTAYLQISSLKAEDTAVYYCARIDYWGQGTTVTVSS VL: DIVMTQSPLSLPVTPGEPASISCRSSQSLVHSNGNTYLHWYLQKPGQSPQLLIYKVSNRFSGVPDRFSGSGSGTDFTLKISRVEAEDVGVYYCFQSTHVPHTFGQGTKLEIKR" reported_measurement=1.67
binder="Zapadcine-1a (antibody, V domains shown, MMAD coupled through linker Py-Vc-PAB by thiol (disulfide) bridge coupling, cleavable; positions not given) VH: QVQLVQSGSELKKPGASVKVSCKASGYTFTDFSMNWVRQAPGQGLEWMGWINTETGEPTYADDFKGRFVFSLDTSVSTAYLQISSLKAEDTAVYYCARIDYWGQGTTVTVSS VL: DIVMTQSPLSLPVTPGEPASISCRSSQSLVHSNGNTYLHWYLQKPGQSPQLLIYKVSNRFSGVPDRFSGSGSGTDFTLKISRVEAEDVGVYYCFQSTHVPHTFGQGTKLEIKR" reported_measurement=0.109
binder="Zapadcine-1c (antibody, V domains shown, MMAD coupled through linker Py-MAA by thiol bridge coupling, non-cleavable; positions not given) VH: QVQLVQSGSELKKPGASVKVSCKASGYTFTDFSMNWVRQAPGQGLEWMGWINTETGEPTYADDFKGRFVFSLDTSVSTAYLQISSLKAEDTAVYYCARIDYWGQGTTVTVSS VL: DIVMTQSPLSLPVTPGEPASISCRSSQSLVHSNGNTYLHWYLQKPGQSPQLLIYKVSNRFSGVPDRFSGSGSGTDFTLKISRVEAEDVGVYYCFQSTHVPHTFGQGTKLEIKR" reported_measurement=0.312

Now examine the next entry.
Would you kindly share the measured IC50, cytotoxic effect on NCI-H1975 cells (CellTiter-Glo, 72 h) for Zaptuzumab (antibody, V domains shown) VH: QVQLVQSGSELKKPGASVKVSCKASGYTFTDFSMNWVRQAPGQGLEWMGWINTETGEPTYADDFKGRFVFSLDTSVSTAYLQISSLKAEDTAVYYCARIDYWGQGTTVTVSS VL: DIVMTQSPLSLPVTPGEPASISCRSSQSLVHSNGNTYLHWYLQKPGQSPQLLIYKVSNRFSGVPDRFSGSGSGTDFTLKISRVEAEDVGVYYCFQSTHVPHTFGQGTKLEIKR ?
0.542
